tested on: AMO-1 human multiple myeloma tumor cell line; assay: AMO-1 cell viability assay (CellTiter-Glo, 24 hours); type: cell-based; details: Homo sapiens, AMO1, 24 h, read-out: AMO-1 Viability IC50 (μM, 10% FBS), 10% FBS, 24 hours of compound treatment
log10(IC50) for assorted compounds
In our notation, the value equals log10 of IC50 in µM.

Check out these entries, answers already filled in.
compound	assayMetric	measValue
Cc1c(Cl)c2c(Cl)c(C)c1-c1c(-c3ccc(F)cc3)sc3ncnc(c13)O[C@@H](C(=O)O)Cc1cc(ccc1OCc1ccnc(N3CCP(C)(=O)CC3)n1)OC[C@@H](CN1CCN(C)CC1)O2 [Example 25]	log10(IC50)	-1.14
COCCOCCOCCOC[C@]1(F)CC[C@@H](c2nccc(COc3ccc4cc3C[C@H](C(=O)O)Oc3ncnc5sc(-c6ccc(F)cc6)c(c35)-c3c(C)c(Cl)c(c(Cl)c3C)O[C@H](CN3CCN(C)CC3)CO4)n2)CC1 [Example 118]	log10(IC50)	-3.61
COCCOCCOCCN1CCN(C[C@@H]2COc3ccc(OCc4ccnc(-c5ccccc5OC)n4)c(c3)C[C@H](C(=O)O)Oc3ncnc4sc(-c5ccc(F)cc5)c(c34)-c3ccc(c(Cl)c3C)O2)CC1 (atropisomer, axis not shown) [Example 5]	log10(IC50)	-2.40
CO[C@@H]1CO[C@H]2[C@@H]1OC[C@H]2OCCOCCOc1nccc(COc2ccc3cc2C[C@H](C(=O)O)Oc2ncnc4sc(-c5ccc(F)cc5)c(c24)-c2c(C)c(Cl)c(c(Cl)c2C)O[C@H](CN2CCN(C)CC2)CO3)n1 [Example 133]	log10(IC50)	-2.49

Just so you know, measured log10(IC50) for COCCOCCOCCOCCOCCOC[C@]1(F)CC[C@@H](c2nccc(COc3ccc4cc3C[C@H](C(=O)O)Oc3ncnc5sc(-c6ccc(F)cc6)c(c35)-c3c(C)c(Cl)c(c(Cl)c3C)O[C@H](CN3CCN(C)CC3)CO4)n2)CC1 [Example 113] came out at -3.55

Cc1c2ccc(c1Cl)O[C@H](CN1CCN(C)CC1)COc1ccc(OCc3ccnc(N4CCC5(CC4)CC(F)(F)CO5)n3)c(c1)C[C@H](C(=O)O)Oc1ncnc3sc(-c4ccc(F)cc4)c-2c13 [Example 78] yielded log10(IC50) of -3.03

CO[C@H]1O[C@H](COc2cccc(-c3nccc(COc4ccc5cc4C[C@H](C(=O)O)Oc4ncnc6sc(-c7ccc(F)cc7)c(c46)-c4ccc(c(Cl)c4C)O[C@H](CN4CCN(C)CC4)CO5)n3)c2)[C@@H](OC)[C@H](OC)[C@@H]1OC [Example 7] has a reported log10(IC50) of -2.15

// field: log10(IC50); key: Cc1c(Cl)c2c(Cl)c(C)c1-c1c(-c3ccc(F)cc3)sc3ncnc(c13)O[C@@H](C(=O)O)Cc1cc(ccc1OCc1ccnc(N3C[C@H]4C[C@@H](C3)C4(F)F)n1)OC[C@@H](CN1CCN(C)CC1)O2 [Example 172] ; value = -3.02
